- TARGET: PTGER2 (EP2) (Homo sapiens, UniProt P43116)
- Sequence (P43116 whole entry): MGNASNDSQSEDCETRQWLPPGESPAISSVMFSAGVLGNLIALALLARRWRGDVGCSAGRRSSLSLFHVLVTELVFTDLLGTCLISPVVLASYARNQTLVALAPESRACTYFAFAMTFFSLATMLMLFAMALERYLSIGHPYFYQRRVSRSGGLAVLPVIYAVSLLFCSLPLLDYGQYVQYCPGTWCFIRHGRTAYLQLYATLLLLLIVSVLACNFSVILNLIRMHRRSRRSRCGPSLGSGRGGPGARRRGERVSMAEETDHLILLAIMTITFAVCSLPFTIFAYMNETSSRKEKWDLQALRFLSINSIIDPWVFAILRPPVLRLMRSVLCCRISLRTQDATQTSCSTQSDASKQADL
- ASSAY_NOTES: cell-based
MEASURED_PARAMETER: pIC50
A value of pIC50 is the negative decimal logarithm of a concentration given in moles per litre.

{"columns": ["COMPOUND", "pIC50"],
 "data": [
  ["CCCc1cc(-c2cc(NCCc3ccc(OC(F)F)cc3OC)ncn2)ccc1C(=O)O [Example 222]", 6.64],
  ["COc1cc(-c2noc(=O)[nH]2)ccc1-c1cc(NCCc2c(F)cc(Br)cc2F)ncn1 [Example 291]", 7.06],
  ["CCCc1cc(-c2cc(NCCc3c(F)cc(Br)cc3F)ncn2)ccc1C(N)=O [Example 303]", 7.36],
  ["CCOc1cc(-c2cc(NCCc3cccc(C(=O)OC)c3)ncn2)sc1C(=O)O [Example 76]", 6.31],
  ["CCCOc1cc(-c2cc(NCCc3c(F)cc(Br)cc3F)ncn2)ccc1CC(=O)O [Example 248]", 6.65],
  ["CCOc1cc(-c2cc(NCCc3c(F)cc(Br)cc3OC)ncn2)sc1-c1noc(=O)[nH]1 [Example 87]", 7.96]
]}

pIC50 for O=C1Cc2cc(-c3cc(NCCc4c(F)cc(Br)cc4F)ncn3)ccc2N1 [Example 312] is 6.76

pIC50 for CCCc1cc(-c2cc(NCCc3cc(Cl)c(C(F)(F)F)cc3OC)ncn2)ccc1C(=O)O [Example 197] is 6.27

pIC50 for CCOc1cc(-c2cc(NCCc3ccc(Br)cc3)ncn2)ccc1C(=O)O [Example 11] is 6.45

pIC50 for CCNC(=O)c1ccc(-c2cc(NCCc3c(F)cc(Br)cc3F)ncn2)cc1OCC [Example 299] is 6.84

pIC50 for CCOc1cc(-c2cc(NCCc3ccc(Br)c(F)c3)ncn2)sc1-c1noc(=O)[nH]1 [Example 108] is 7.55

pIC50 for CCOc1cc(-c2cc(NCCc3cc(C)c(C)cc3OC)ncn2)ccc1C(=O)O [Example 7] is 6.36

pIC50 for CCOc1cc(-c2cc(NCCc3ccccc3C)ncn2)sc1C(=O)O [Example 55] is 7.05

pIC50 for CCOc1cc(F)ccc1CCNc1cc(-c2cc(OCC)c(-c3noc(=O)[nH]3)s2)ncn1 [Example 95] is 7.52

pIC50 for CCc1cc(-c2cc(NCCc3c(F)cc(Br)cc3F)ncn2)cc(Cl)c1CC(=O)O [Example 253] is 6.72

pIC50 for CCOc1nc(-c2cc(NCCc3c(F)cc(Br)cc3F)ncn2)sc1C(=O)O [Example 148] is 7.70

pIC50 for O=C(O)Cc1ccc(-c2cc(NCCc3c(F)cc(Br)cc3F)ncn2)cc1OC(F)(F)F [Example 236] is 6.58

###

- TARGET: PTRGER4 (EP4) (Homo sapiens, UniProt P35408);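 note: assay plate preincubated 15 min at 37 °C, after which PGE2 was added at 20 nM final and incubation continued 120 min at 37 °C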
- Sequence (P35408 whole entry): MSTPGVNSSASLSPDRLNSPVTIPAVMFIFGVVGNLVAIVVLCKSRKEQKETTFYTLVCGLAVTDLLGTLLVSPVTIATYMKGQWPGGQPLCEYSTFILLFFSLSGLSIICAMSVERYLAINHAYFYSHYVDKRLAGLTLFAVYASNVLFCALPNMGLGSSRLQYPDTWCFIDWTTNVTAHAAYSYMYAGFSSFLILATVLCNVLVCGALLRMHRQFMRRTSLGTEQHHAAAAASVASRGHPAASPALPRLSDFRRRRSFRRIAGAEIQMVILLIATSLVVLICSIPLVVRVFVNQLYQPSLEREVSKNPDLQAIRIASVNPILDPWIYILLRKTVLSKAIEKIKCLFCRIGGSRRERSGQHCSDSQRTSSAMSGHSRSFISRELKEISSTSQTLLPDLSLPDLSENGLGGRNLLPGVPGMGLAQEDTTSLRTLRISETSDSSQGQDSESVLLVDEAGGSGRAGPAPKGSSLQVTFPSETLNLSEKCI
MEASURED_PARAMETER: IC50 (µM)
Report the figure in µM without appending any unit label.

Answered cases to consult:
{"columns": ["SUBSTANCE_SMILES", "ENDPOINT_UNIT", "REPORTED_RESULT"],
 "data": [
  ["CCOc1cc(-c2cc(NCCc3ccc(Cl)cc3Cl)ncn2)sc1C(=O)O", "µM", 0.133],
  ["CCOc1cc(-c2cc(NCCc3cc(C)c(Br)cc3F)ncn2)sc1-c1noc(=O)[nH]1", "µM", 0.003]
]}

For the next question, use this compound.
Reported IC50 (PTRGER4 (EP4) (Homo sapiens, UniProt P35408)) for entry CCCc1cc(-c2cc(NCCc3c(C)cc(C)cc3OC)ncn2)ccc1C(=O)O is 0.482

All figures here come from patent US11712438B2.
